protocol_summary: Selectivity index, ratio of CC50 for African green monkey Vero cells to IC50 for promastigote form of Leishmania amazonensis MHOM/BR/Josefa
Type: toxicity
test_parameters: read-out: Ratio CC50/IC50
observable: selectivity ratio

Known selectivity ratio results, listed for orientation:
{"smiles_string": "COc1ccc(/C=C2\\CCC/C(=C\\c3cccc(OC)c3OC)C2=O)cc1", "selectivity ratio": 45.1}
{"smiles_string": "COc1ccc(/C=C2\\CCC/C(=C\\c3ccccc3)C2=O)cc1", "selectivity ratio": 24.6}
{"smiles_string": "COc1ccc(/C=C2\\CCC/C(=C\\c3ccc(Cl)cc3)C2=O)cc1", "selectivity ratio": 22.5}
{"smiles_string": "COc1ccc(/C=C2\\CCC/C(=C\\c3ccc(Br)cc3)C2=O)cc1", "selectivity ratio": 14.5}
{"smiles_string": "COc1ccc(/C=C2\\CCC/C(=C\\c3ccc(N(C)C)cc3)C2=O)cc1", "selectivity ratio": 4.3}

Summary for this molecule, COc1ccc(/C=C2\CCCCC2=O)cc1 : selectivity ratio is 3.6

* * *

System: Trypanosoma cruzi
protocol_summary: Antiparasitic activity against trypomastigote form of Trypanosoma cruzi assessed as parasite lysis after 24 hrs by Pizzi-Brener method
Assay type: functional, organism-based
Friendly reminder: EC50 below 60 µM is True, at or above is False.

Take a look at these entries with their results.
{"smiles_string": "COc1cccc(/C=C2\\CCC/C(=C\\c3c(Cl)cccc3Cl)C2=O)c1OC", "subject_of_test": "Trypanosoma cruzi", "assigned_category": "True"}
{"smiles_string": "O=C1/C(=C/c2ccccc2Cl)CCC/C1=C\\c1ccccc1Cl", "subject_of_test": "Trypanosoma cruzi", "assigned_category": "True"}
{"smiles_string": "COc1ccc(/C=C2\\CCC/C(=C\\c3ccccc3Cl)C2=O)cc1", "subject_of_test": "Trypanosoma cruzi", "assigned_category": "False"}
{"smiles_string": "COc1ccc(/C=C2\\CCC/C(=C\\c3c(Cl)cccc3Cl)C2=O)cc1", "subject_of_test": "Trypanosoma cruzi", "assigned_category": "True"}
{"smiles_string": "COc1cccc(/C=C2\\CCCCC2=O)c1OC", "subject_of_test": "Trypanosoma cruzi", "assigned_category": "False"}
{"smiles_string": "O=C1/C(=C/c2ccc3c(c2)OCO3)CCC/C1=C\\c1ccc2c(c1)OCO2", "subject_of_test": "Trypanosoma cruzi", "assigned_category": "False"}
{"smiles_string": "COc1cccc(/C=C2\\CCC/C(=C\\c3cc(OC)c(OC)c(OC)c3)C2=O)c1OC", "subject_of_test": "Trypanosoma cruzi", "assigned_category": "True"}
{"smiles_string": "COc1cc([N+](=O)[O-])ccc1/C=C1\\CCC/C(=C\\c2cccc(OC)c2OC)C1=O", "subject_of_test": "Trypanosoma cruzi", "assigned_category": "False"}

Ask: API: query returns whether the molecule falls strictly under 60 µM in EC50. Query: COc1cccc(/C=C2\CCC/C(=C\c3cccc(OC)c3OC)C2=O)c1OC
Result: True

Ask: Is EC50 strictly under 60 µM for the entry COc1ccc(/C=C2\CCC/C(=C\c3ccc(Cl)cc3)C2=O)cc1 ?
Result: False

Ask: Hi there! Is EC50 for COc1cccc(/C=C2\CCC/C(=C\c3cccc(Br)c3)C2=O)c1OC below 60 µM, do you know?
Result: False

Ask: Could you please tell me whether EC50 recorded for COc1ccc(/C=C2\CCC/C(=C\c3ccc(Br)cc3)C2=O)cc1 is less than 60 µM?
Result: False

Ask: Is EC50 of COc1ccc(/C=C2\CCC/C(=C\c3cccc(OC)c3OC)C2=O)cc1 strictly below 60 µM?
Result: True

Ask: Input COc1ccc(/C=C2\CCC/C(=C\c3cccc(OC)c3OC)C2=O)cc1OC ; condition: EC50 strictly below 60 µM. Does it hold?
Result: True

Ask: Is EC50 of COc1cc(/C=C/C(=O)CC(=O)/C=C/c2ccc(O)c(OC)c2)ccc1O strictly below 60 µM?
Result: True

Ask: I wonder whether O=C1/C(=C/c2ccccc2)CCC/C1=C\c1ccccc1 has EC50 below 60 µM. Can you tell?
Result: False

Ask: Does the reported EC50 of the following molecule sit strictly below 60 µM? COc1ccc(/C=C2\CCCCC2=O)cc1
Result: False

Ask: Quick check: does COc1cc(/C=C2\CCC/C(=C\c3cc(OC)c(OC)c(OC)c3)C2=O)cc(OC)c1OC have EC50 under 60 µM?
Result: False

* * *

protocol_summary: Selectivity index, ratio of CC50 for African green monkey Vero cells to EC50 for trypomastigote form of Trypanosoma cruzi
Format: toxicity
test_parameters: read-out: Ratio CC50/EC50
Please enter condition met where selectivity ratio is greater than or equal to 1, and condition not met where it is lower.

Field: example entries. Status: answers known.
{"smiles_string": "O=C1/C(=C/c2ccccc2)CCC/C1=C\\c1ccccc1", "assigned_category": "condition not met"}
{"smiles_string": "COc1cccc(/C=C2\\CCC/C(=C\\c3ccc(Br)cc3)C2=O)c1OC", "assigned_category": "condition not met"}
{"smiles_string": "COc1cc(/C=C/C(=O)CC(=O)/C=C/c2ccc(O)c(OC)c2)ccc1O", "assigned_category": "condition met"}
{"smiles_string": "O=C1/C(=C/c2ccc(Br)cc2)CCC/C1=C\\c1ccc(Br)cc1", "assigned_category": "condition met"}
{"smiles_string": "O=C1/C(=C/c2ccc(F)cc2)CCC/C1=C\\c1ccc(F)cc1", "assigned_category": "condition not met"}

Ask: State whether the measured selectivity ratio reaches 1, counting equality as reaching it, for COc1ccc(/C=C2\CCC/C(=C\c3cccc(OC)c3OC)C2=O)cc1OC
Result: condition met

Ask: Assess whether reported selectivity ratio for O=C1/C(=C/c2ccccc2Cl)CCC/C1=C\c1ccccc1Cl sits at 1 or higher.
Result: condition not met

Ask: Identify whether the reported selectivity ratio of the following compound is 1 or greater: COc1cccc(/C=C2\CCC/C(=C\c3c(Cl)cccc3Cl)C2=O)c1OC
Result: condition met

Ask: Could you verify whether the entry O=C1/C(=C/c2ccc(Cl)cc2)CCC/C1=C\c1ccc(Cl)cc1 shows selectivity ratio of no less than 1?
Result: condition not met

* * *

protocol_summary: Cytotoxicity against African green monkey Vero cells assessed as growth inhibition
Assay type: cell-based
test_parameters: chlorocebus sabaeus
CC50 values, listed per item
Quick note: give the figure in µM, leave out the unit.

Completed entries (count: 2):
{"smiles_string": "COc1ccc(/C=C2\\CCC/C(=C\\c3ccc(F)cc3)C2=O)cc1", "val": 378}
{"smiles_string": "COc1cccc(/C=C2\\CCCCC2=O)c1OC", "val": 720}

Recorded result, COc1cccc(/C=C2\CCC/C(=C\c3ccccc3)C2=O)c1OC , CC50: 33.5

* * *

protocol_summary: Cytotoxicity against African green monkey Vero cells assessed as growth inhibition
Type: cell-based
test_parameters: chlorocebus sabaeus
Some compounds, each annotated with its measured log10 of CC50.
A difference of one corresponds to tenfold CC50; all values are log10 with CC50 in µM.

{"smiles_string": "COc1ccc(/C=C2\\CCC/C(=C\\c3ccccc3F)C2=O)cc1", "log10 of CC50": 2.43}

// moving on: another record for log10 of CC50
Recorded log10 of CC50 (compound COc1ccc(/C=C2\CCC/C(=C\c3c(Cl)cccc3Cl)C2=O)cc1 ): 2.37

* * *

CC50: recorded values
protocol_summary: Cytotoxicity against African green monkey Vero cells assessed as growth inhibition
Assay type: cell-based
test_parameters: chlorocebus sabaeus
Note: unit µM is implicit; provide only the numeric part.

Below, 3 molecules whose answers are already recorded.
{"smiles_string": "COc1ccc(/C=C2\\CCC/C(=C\\c3ccc(Cl)cc3)C2=O)cc1", "CC50 (µM)": 401}
{"smiles_string": "O=C1/C(=C/c2cccc(Br)c2)CCC/C1=C\\c1cccc(Br)c1", "CC50 (µM)": 35.9}
{"smiles_string": "O=C1/C(=C/c2ccccc2Cl)CCC/C1=C\\c1ccccc1Cl", "CC50 (µM)": 30.6}

Let us move to another entry and its CC50.
The molecule listed as COc1cc([N+](=O)[O-])ccc1/C=C1\CCC/C(=C\c2cccc(OC)c2OC)C1=O has a reported CC50 of 120

* * *

protocol_summary: Selectivity index, ratio of CC50 for African green monkey Vero cells to IC50 for promastigote form of Leishmania amazonensis MHOM/BR/Josefa
Format: toxicity
test_parameters: read-out: Ratio CC50/IC50
The following ranges of selectivity ratio define the classes used here: low end: < 7; middle: ≥ 7 and < 20; high end: ≥ 20

Please review the entries below; each comes with its answer.
{"smiles_string": "COc1ccc(/C=C2\\CCC/C(=C\\c3ccc(OC)cc3)C2=O)cc1", "assigned_category": "low end"}
{"smiles_string": "O=C1/C(=C/c2c(Cl)cccc2Cl)CCC/C1=C\\c1c(Cl)cccc1Cl", "assigned_category": "high end"}
{"smiles_string": "COc1cccc(/C=C2\\CCC/C(=C\\c3c(Cl)cccc3Cl)C2=O)c1OC", "assigned_category": "high end"}

Ask: Which selectivity ratio band matches COc1ccc(/C=C2\CCC/C(=C\c3cccc(Br)c3)C2=O)cc1 ?
Result: low end

Ask: Assign a category based on measured selectivity ratio for O=C1/C(=C/c2ccc(F)cc2)CCC/C1=C\c1ccc(F)cc1 and give only the class name.
Result: middle

Ask: State the band of COc1cccc(/C=C2\CCC/C(=C\c3cccc(OC)c3OC)C2=O)c1OC
Result: low end

Ask: The entry to classify is COc1ccc(/C=C2\CCC/C(=C\c3ccccc3F)C2=O)cc1 ; which class holds it?
Result: high end

Ask: Kindly identify the class of COc1ccc(/C=C2\CCC/C(=C\c3ccc(F)cc3)C2=O)cc1 .
Result: high end

Ask: Which of the defined bands does the recorded selectivity ratio of O=C1/C(=C/c2ccc(Br)cc2)CCC/C1=C\c1ccc(Br)cc1 sit within?
Result: middle

Ask: Looking at COc1ccc(/C=C2\CCC/C(=C\c3c(Cl)cccc3Cl)C2=O)cc1 , which class would you pick?
Result: high end

Ask: Using the reported selectivity ratio, which band applies to COc1cccc(/C=C2\CCC/C(=C\c3ccccc3)C2=O)c1OC ?
Result: low end

Ask: Consider O=C1/C(=C/c2ccc(Cl)cc2)CCC/C1=C\c1ccc(Cl)cc1 . To which selectivity ratio class does it belong?
Result: middle

Ask: Class? Entry: COc1ccc(/C=C2\CCC/C(=C\c3cccc(OC)c3OC)C2=O)cc1OC
Result: middle

Ask: Form: Item = O=C1/C(=C/c2ccccc2Cl)CCC/C1=C\c1ccccc1Cl ; Class = ?
Result: low end

Ask: For O=C1/C(=C/c2cccc(Br)c2)CCC/C1=C\c1cccc(Br)c1 , which selectivity ratio bin applies?
Result: middle

Ask: Assign a category based on measured selectivity ratio for COc1cc(/C=C2\CCC/C(=C\c3cc(OC)c(OC)c(OC)c3)C2=O)cc(OC)c1OC and give only the class name.
Result: middle

Ask: Which category does the recorded selectivity ratio put COc1ccc(/C=C2\CCC/C(=C\c3ccccc3Cl)C2=O)cc1 in?
Result: middle
